# measurement_notes: label from the status in PepcDB records
parameter_measured: protein production

Example sequences with recorded protein production:
INSERT INTO assay_data (residues, assay_value) VALUES
  ('MLYHLVMLEPEGEGAMDRIMEAMAILDGLAPELPGLTEFRHGPNRDFEQKSERYPYGFLCTFTDKAALDAYAVHPTHQRAGGMLVASCRNGADGILVVDLEV', 'not failed'),
  ('MDGSNVTSFVVEEPTNISTGRNASVGNAHRQIPIVHWVIMSISPVGFVENGILLWFLCFRMRRNPFTVYITHLSIADISLLFCIFILSIDYALDYELSSGHYYTIVTLSVTFLFGYNTGLYLLTAISVERCLSVLYPIWYRCHRPKYQSALVCALLWALSCLVTTMEYVMCIDREEESHSRNDCRAVIIFIAILSFLVFTPLMLVSSTILVVKIRKNTWASHSSKLYIVIMVTIIIFLIFAMPMRLLYLLYYEYWSTFGNLHHISLLFSTINSSANPFIYFFVGSSKKKRFKESLKVVLTRAFKDEMQPRRQKDNCNTVTVETVV', 'failed'),
  ('MNDFLFYLDIFGVIVFALSGALMAGRYQLDPFGVVVLASVTAVGGGTIRDVILQTPVFWVEKPYYLYVILATAILTIVLIRQPKRIPKRFLLIADALGLALFAVLGTQKALYLGAPIPVAVVLGTITGIAGGMIRDVLCNVIPMILREEIYALAAMLGGSLFIILHGLNWNDTNAMIVSISAALALRLAAIYWHVSLPAFHIVEKPKKEKGTTKIIEKK', 'failed'),
  ('MAILEYIMLLFIGLIAGTVGSLVGLGGGIIIVPLLIGLHSLSPQLAVGTSMVTVVFTGLSSTLTYMKHKRVDYKSGLILFIGSGPGGIIGSWANKFLNQDTFSLYFGIFLIFVSILLMLRDKLKPLSLSNTSVIKRSFTDNDGNTVHYQFPPFLAIFIAFIVGFISGLFGIGGGALLVPAMMLLFAFPAHIAVATSMFIVFLSAIVSSATHISLGNVSWIYALILIPGAWIGGKIGAYINTKLSGNAVINLLRITLIILGTRLIIISLL', 'failed'),
  ('LPIIVKWGGQEYSVTTLSKDDTVLDLKQFLKTLTGVLPERQKLLGLKVKGKPAENDVKLGALKLKPNTKIMMMGTRE', 'not failed');

Please report protein production for every entry that follows.
1. MVSMLTRIRRQIKRVIEPLAKTLAQLKVSANFITMLGLIFAIVYYFEIMRSNTTLGIIFLVFSALMDAIDGEVARVSKTVSPLGSFLDSTLDRIEDILYISAFIFLGFSSYLVAIAVGLSLTISYIRAKAESLGLKMEGRGIIERGERIIFVFVILLLYIIVSKQVSLYLFYLFMLLTAITVIQRFYAVYSLLRK
2. MGSSHHHHHHSSGENLYFQGHMKTADLCDQFLDELQVCELPFQSYGGKRMFSGPIATVDVFEDNVLVREALETVPPGTVLVVDGKGSRRVALLGDRLAQIACERGLAGVIIHGCIRDSAEIGAMPIGVMAIGTCPVKSKKEGKGARDVVLEFGGVRWEPGAYVYADADGVVVANKDLLAKNG

1: failed; 2: not failed

----------
# measurement_notes: label from the status in PepcDB records
parameter_measured: protein production

INSERT INTO results (residues, assay_value) VALUES
  ('MLTHREYFNSKADIWDSLCAPEEKAKLETIIRGLNIAPGSTVLDVGCGTGILIPYLLAAVGPAGRIVALDIAEAMLERAQSKGFPANVEFICADVVSVPYPDATFDEVICNSAFPHFPHKLKALKEMARVLKPGGRVVICHTKARETINNLHRSLGGVIAGDQIPPGSEMMGMLVAAGLTGIEIDEALDYYLASGFKAMYE', 'failed'),
  ('MQFIYSIIGILLVLGIVYAISFNRKSVSLSLIGKALIVQFIIALILVRIPLGQQVVSVVSTGVTKVINCGQAGLNFVFGSLADSGAKTGFIFAIQTLGNIVFLSALVSLLYYVGILGFVVKWIGKGVGKIMKSSEVESFVAVANMFLGQTDSPILVSKYLGRMTDSEIMVVLVSGMGSMSVSILGGYIALGIPMEYLLIASTMVPIGSILIAKILLPQTEPVQKIDDIKMDNKGNNANVIDAIAEGASTGAQMAFSIGASLIAFVGLVSLINMMLSGLGIRLEQIFSYVFAPFGFLMGFDHKNILLEGNLLGSKLILNEFVSFQQLGDLIKSLDYRTALVATISLCGFANLSSLGICVSGIAVLCPEKRGTLARLVFRAMIGGIAVSMLSAFIVGIVTLF', 'failed'),
  ('MNTMLNPHYQQIWQTVQLIPQGKVACYGQIADLAGLPGRARLVGKSLGKVPKDGWRGQRVPWFRVINSQGKISFPPGSENFDKQKHHLQDEQVVVIGSRIKLKEFQWKPDLSELLFSLEFLEHHHHHH', 'failed');
